- protocol details: Toxicity in sheep erythrocytes assessed as hemolysis at 100 uM after 90 mins
- Assay type: cell-based, Ovis aries, Erythrocyte
- conditions used: read-out: Activity
Readings of hemolysis at 1.5 h, 100 µM for the listed compounds

| smiles repr | hemolysis at 1.5 h, 100 µM / % |
| --- | --- |
| COc1cc(OC)c(C2CCN(C)CC2)c(O)c1C(=O)/C=C/c1cccc(Cl)c1 | 6.5 |
| COc1cc(OC)c(C2CCN(C)CC2)c(O)c1C(=O)/C=C/c1ccc(N(C)C)cc1 | 10.3 |
| O=C(/C=C/c1ccc(Cl)cc1)c1cccc(N2CCNCC2)c1 | 11.6 |
| C=CC(C)(C)c1cc(/C=C/C(=O)c2ccc(O)cc2)c(OC)cc1O | 19.9 |
| CN1CCC(c2ccc(O)c(C(=O)/C=C/c3ccccc3Cl)c2)CC1 | 14.8 |
| COc1cc(OC)c(C2CCN(C)CC2)c(O)c1C(=O)/C=C/c1ccc(C)cc1 | 6.7 |
| COc1cc(OC)c(C2CCN(C)CC2)c(O)c1C(=O)/C=C/c1ccc(Cl)cc1 | 5.5 |

###

Readings of MIC for the listed molecules
- Tested on: Escherichia coli
- protocol details: Antibacterial activity against Escherichia coli ATCC 49696 after 20 hrs by microdilution assay
- Type: functional
- conditions used: ATCC 49696, 20 h
measured attribute: MIC

| molecule | result |
| --- | --- |
| COc1cc(OC)c(C2CCN(C)CC2)cc1C(=O)/C=C/c1ccccn1 | > 100 µM |
| COc1ccccc1/C=C/C(=O)c1cc(C2CCN(C)CC2)c(OC)cc1OC | > 100 µM |
| COc1cc(OC)c(C2CCN(C)CC2)c(O)c1C(=O)/C=C/c1cccc(Cl)c1 | > 100 µM |
| COc1cc(OC)c(C2CCN(C)CC2)c(O)c1C(=O)/C=C/c1ccc(C)cc1 | > 100 µM |
| COc1ccc(C(=O)/C=C/c2ccccn2)c(OC)c1 | > 100 µM |
| COc1ccc(C2CCN(C)CC2)cc1C(=O)/C=C/c1ccccc1 | > 100 µM |
| COc1cc(O)c(C(=O)/C=C/c2ccccc2OC)cc1C | > 100 µM |
| CCN1CCC(c2cc(C(=O)/C=C/c3ccc(N4CCN(C)CC4)cc3)c(OC)cc2OC)CC1 | > 100 µM |
| COc1cc(OC)c(C2CCN(C)CC2)c(O)c1C(=O)/C=C/c1ccc(N2CCN(C)CC2)cc1 | > 100 µM |
| COc1ccc(/C=C/C(=O)c2cccc(N3CCCCC3)c2)c(OC)c1 | > 100 µM |
| COc1ccc(/C=C/C(=O)c2c(OC)cc(OC)c(C3CCN(C)CC3)c2O)cc1 | > 100 µM |
| COc1cc(OC)c(C2CCN(C)CC2)c(O)c1C(=O)/C=C/c1ccc(Cl)cc1 | > 100 µM |
| COc1cccc(/C=C/C(=O)c2c(OC)cc(OC)c(C3CCN(C)CC3)c2O)c1 | > 100 µM |
| COc1cc(OC)c(C2CCN(C)CC2)cc1C(=O)/C=C/c1ccccc1Cl (stereo in doubt; 1-5) | > 100 µM |
| COc1cc(OC)c(N2CCC(N3CCCCC3)CC2)cc1C(=O)/C=C/c1ccccc1Cl | > 100 µM |
| COc1cc(OC)c(C2CCN(C)CC2)c(O)c1C(=O)/C=C/c1ccccc1C | > 100 µM |
| COc1ccc(C(=O)/C=C/c2ccc(Cl)cc2)c(OC)c1 | > 100 µM |
| O=C(/C=C/c1ccc(Cl)cc1)c1cccc(N2CCNCC2)c1 | > 100 µM |
| CCN1CCC(c2cc(C(=O)/C=C/c3ccncc3)c(OC)cc2OC)CC1 | > 100 µM |
| COc1cc(OC)c(C2CCN(C)CC2)cc1C(=O)/C=C/c1ccncc1 | > 100 µM |
| COc1ccc(C(=O)/C=C/c2cccnc2)c(OC)c1 | > 100 µM |
| COc1ccc(C2CCN(C)CC2)cc1C(=O)/C=C/c1ccc(Cl)cc1 | > 100 µM |
| O=C(/C=C/c1ccccc1)c1cccc(N2CCCCC2)c1 | > 100 µM |
| COc1cc(OC)c(C2CCN(C)CC2)cc1C(=O)/C=C/c1ccccc1C | > 100 µM |
| COc1cc(OC)c(C2CCN(C)CC2)c(O)c1C(=O)/C=C/c1ccc(C(F)(F)F)cc1 | > 100 µM |
| CN1CCC(c2ccc(O)c(C(=O)/C=C/c3ccccc3Cl)c2)CC1 | > 100 µM |
| O=C(/C=C/c1ccccc1Cl)c1cccc(N2CCCCC2)c1 | > 100 µM |
| COc1cc(OC)c(C2CCN(C)CC2)c(O)c1C(=O)/C=C/c1ccc(F)cc1 | > 100 µM |
| COc1cc(OC)c(C2CCN(C)CC2)c(O)c1C(=O)/C=C/c1ccccc1 | > 100 µM |
| CCN1CCC(c2cc(C(=O)/C=C/c3ccc(Cl)cc3)c(OC)cc2OC)CC1 | > 100 µM |
| COc1cc(O)c(C(=O)/C=C/c2ccccc2Cl)cc1C | > 100 µM |
| O=C(/C=C/c1ccc(Cl)cc1)c1cccc(N2CCCCC2)c1 | > 100 µM |
| COc1ccc(C(=O)/C=C/c2ccncc2)c(OC)c1 [DILMEFONE] | > 100 µM |
| COc1ccc(/C=C/C(=O)c2c(OC)cc(OC)c(C3CCN(C)CC3)c2O)c(OC)c1 | > 100 µM |
| COc1cc(OC)c(N2CCC(N3CCCCC3)CC2)cc1C(=O)/C=C/c1ccccc1F | > 100 µM |
| COc1ccc(C(=O)/C=C/c2ccc(N3CCN(C)CC3)cc2)c(OC)c1 | > 100 µM |
| COc1ccc(/C=C/C(=O)c2cc(C3CCN(C)CC3)c(OC)cc2OC)cc1 | > 100 µM |
| COc1cc(OC)c(C2CCN(C)CC2)cc1C(=O)/C=C/c1ccc(N2CCN(C)CC2)cc1 | > 100 µM |
| COc1cc(OC)c(C2CCN(C)CC2)c(O)c1C(=O)/C=C/c1ccc(N(C)C)cc1 | > 100 µM |
| CCN1CCC(c2cc(C(=O)/C=C/c3ccccc3Cl)c(OC)cc2OC)CC1 | > 100 µM |
| COc1ccc(C2CCN(C)CC2)cc1C(=O)/C=C/c1ccccc1Cl | > 100 µM |
| COc1cc(OC)c(C2CCN(C)CC2)c(O)c1C(=O)/C=C/c1ccccc1Cl | > 100 µM |

###

- Tested on: Escherichia coli
- protocol details: Antibacterial activity against Escherichia coli ATCC 49696 after 20 hrs by microdilution assay
- Assay type: functional
- conditions used: ATCC 49696, 20 h
Readings of MIC for the listed compounds

| smiles repr | target or test system | MIC |
| --- | --- | --- |
| CCN1CCC(c2cc(C(=O)/C=C/c3ccccc3)c(OC)cc2OC)CC1 | Escherichia coli | > 100 µM |
| COc1cc(OC)c(C2CCN(C)CC2)cc1C(=O)/C=C/c1cccnc1 | Escherichia coli | > 100 µM |
| COc1cc(OC)c(C2CCN(C)CC2)c(O)c1C(=O)/C=C/c1ccccc1F | Escherichia coli | > 100 µM |
| COc1cc(OC)c(C2CCN(C)CC2)c(O)c1C(=O)/C=C/c1ccc(C#N)cc1 | Escherichia coli | > 100 µM |
| COc1cc(OC)c(C2CCN(C)CC2)cc1C(=O)/C=C/c1ccccc1 | Escherichia coli | > 100 µM |

###

Readings of MIC for the listed compounds
- Tested on: Staphylococcus aureus
- protocol details: Antibacterial activity against methicillin-sensitive Staphylococcus aureus ATCC 13150 after 20 hrs by microdilution assay
- Assay type: functional
- conditions used: Staphylococcus aureus, ATCC 13150, 20 h; read-out: MIC

| smiles repr | MIC |
| --- | --- |
| COc1ccc(/C=C/C(=O)c2cc(C3CCN(C)CC3)c(OC)cc2OC)cc1 | > 100 µM |
| COc1cc(O)c(C(=O)/C=C/c2ccc(F)cc2)cc1C1CCN(C)CC1 | > 100 µM |
| COc1ccc(C(=O)/C=C/c2cccnc2)c(OC)c1 | > 100 µM |
| CCN1CCC(c2cc(C(=O)/C=C/c3ccc(Cl)cc3)c(OC)cc2OC)CC1 | 50 µM |
| COc1cccc(/C=C/C(=O)c2c(OC)cc(OC)c(C3CCN(C)CC3)c2O)c1 | > 100 µM |
| COc1cc(O)c(C(=O)/C=C/c2ccccc2OC)cc1C | > 100 µM |
| COc1ccc(/C=C/C(=O)c2c(OC)cc(OC)c(C3CCN(C)CC3)c2O)c(OC)c1 | > 100 µM |
| COc1cc(OC)c(C2CCN(C)CC2)c(O)c1C(=O)/C=C/c1ccc(F)cc1 | > 100 µM |
| CCN1CCC(c2cc(C(=O)/C=C/c3ccccc3)c(OC)cc2OC)CC1 | > 100 µM |
| COc1cc(OC)c(C2CCN(C)CC2)c(O)c1C(=O)/C=C/c1cccc(Cl)c1 | 6.25 µM |
| COc1ccc(C(=O)/C=C/c2ccccc2Cl)c(OC)c1 | > 100 µM |
| CCN1CCC(c2cc(C(=O)/C=C/c3ccc(N4CCN(C)CC4)cc3)c(OC)cc2OC)CC1 | > 100 µM |
| COc1cc(OC)c(C2CCN(C)CC2)cc1C(=O)/C=C/c1ccc(C)cc1 | > 100 µM |
| COc1cc(O)c(C(=O)/C=C/c2ccccc2Cl)cc1C | > 100 µM |
| COc1ccc(/C=C/C(=O)c2cccc(N3CCNCC3)c2)c(OC)c1 | 100 µM |
| O=C(/C=C/c1ccccc1)c1cccc(N2CCNCC2)c1 | > 100 µM |
| COc1cc(OC)c(C2CCN(C)CC2)cc1C(=O)/C=C/c1ccccc1 | > 100 µM |
| COc1ccc(C(=O)/C=C/c2ccc(N3CCN(C)CC3)cc2)c(OC)c1 | > 100 µM |
| COc1ccccc1/C=C/C(=O)c1c(OC)cc(OC)c(C2CCN(C)CC2)c1O | 50 µM |
| CC1(C)S[C@@H]2[C@H](NC(=O)Cc3ccccc3)C(=O)N2[C@H]1C(=O)O | 0.1 µM |
| COc1ccc(C2CCN(C)CC2)cc1C(=O)/C=C/c1ccccc1 | 100 µM |
| O=C(/C=C/c1ccc(Cl)cc1)c1cccc(N2CCCCC2)c1 | > 100 µM |
| O=C(/C=C/c1ccccc1Cl)c1cccc(N2CCNCC2)c1 | > 100 µM |
| COc1ccc(C2CCN(C)CC2)cc1C(=O)/C=C/c1ccccc1Cl | > 100 µM |
